Where do these numbers come from? They come from ChEMBL document CHEMBL1201862.

test system: SW-620; test: NCI tumour cell line growth inhibition, 48 h
The source made the active and inactive calls. Rule as the data show it: active = GI50 up to about 1.1 µM and inactive = higher.
metric: GI50

In [3]: df
Out[3]:
                                    compound                   val
 0           O=C(C=C1SCCS1)/C=C\c1ccc(Cl)cc1   > 100 µM (inactive)
 1  CCCCCCCCCCCCP(=O)(O)OCC(N)C(=O)O (configuration not stated)    40.3 µM (inactive)
 2  O=C(Nc1ccc(Cl)cc1)c1cccc([N+](=O)[O-])c1O    4.81 µM (inactive)
 3  CC(C)(C)OC(=O)NCCCCC(NC(=O)c1ccccc1)C(N)=O (configuration not stated)   > 100 µM (inactive)
 4                     COc1ccc(/C=C/NC=O)cc1   > 100 µM (inactive)
 5  Cc1nc(C(N)=S)sc1C(=O)CC(=O)C(=O)Nc1ccc(Br)cc1   > 100 µM (inactive)
 6  c1ccc(-c2nc(-c3ccccc3)c(-c3ccccc3)[nH]2)cc1   > 100 µM (inactive)
 7             COc1cc(OC)c2nc3occc3c(OC)c2c1   > 100 µM (inactive)
 8            O=C(O)CCCc1ccc(N(CCCl)CCCl)cc1    87.9 µM (inactive)
 9  CCOC(=O)CCC(C(=O)OCC)n1nc2ccc(Nc3c(C)[n+]([O-])c4cc(F)c(OCC)cc4[n+]3[O-])cc2n1 (configuration not stated)   > 100 µM (inactive)
10  C/C=C1\CN2CCC34c5ccccc5N(C)C35OCC4(C(=O)OC)C1CC25 (configuration not stated)    41.6 µM (inactive)
11  CN1C/C(=C\C=C\c2ccccc2)C(=O)/C(=C/C=C/c2ccccc2)C1   > 100 µM (inactive)
12  Oc1c(N2CCCCC2)cc(-c2cc(N3CCCCC3)c(O)c3ccccc23)c2ccccc12    29.3 µM (inactive)
13                Cn1ccc2c(c1=O)C(=O)OC2(C)C   > 100 µM (inactive)
14  COc1ccc2c(c1)CCN1C3=C(CCC3)C(=O)C[C@@H]21   > 100 µM (inactive)
15  CC(C)(C)OC/C=C1\C(=O)O[C@H]2C[C@@H](O[Si](C)(C)C(C)(C)C)C[C@@H]12   > 100 µM (inactive)
16  Cc1ccc(Nc2nc(N)nc3c2ncn3C2OC(CO)C(O)C2O)cc1 (configuration not stated)   > 100 µM (inactive)
17  CCN(CC)CCOc1ccc(/C=C(\C#N)c2ccc(OCCN(CC)CC)cc2)cc1    15.3 µM (inactive)
18  CSC1CC2C(CC1(C)SC)C2(C)C (configuration not stated)   > 100 µM (inactive)
19  CC(C)CC(NC(=O)OC(C)(C)C)C(=O)Nc1ccc(Nc2nc(F)nc(-c3c4ccccc4c4n3CCS4)n2)cc1 (configuration not stated)    16.1 µM (inactive)
20                 O=C1CCSc2c(cnc3ccccc23)N1   > 100 µM (inactive)
21      O=C(c1ccccc1)c1nnc(C(=O)c2ccccc2)nn1   > 344 µM (inactive)
22  Cc1c(Cc2ccccc2)c(Cc2ccccc2)c(C)[s+]1[O-]    26.4 µM (inactive)
23  COc1cc2cc3c4cc(OC)c(OC)cc4cc[n+]3c(C)c2cc1OC    58.7 µM (inactive)
24  CCOC(=O)c1c(SCCCN2CCCCC2)n(-c2ccccc2)c(=S)n(-c2ccccc2)c1=O    17.7 µM (inactive)
25  COc1ccc(/N=N/C(=O)NC(CC(C)C)C(=O)NC(CC(C)C)C(=O)O)cc1 (configuration not stated)      67 µM (inactive)
26                   CCCCCCc1ccc(C(=O)NO)cc1    64.4 µM (inactive)
27  Br[C@@H]1[C@H]2c3nc4ccccc4nc3[C@@H]1C[C@H]2Br   > 100 µM (inactive)
28  C=C1C(=O)O[C@H]2[C@H]1[C@H](OC(=O)/C(C)=C\C)CC(=C)[C@@H]1[C@H](O)[C@H]3O[C@@]3(C)[C@@]12O   > 100 µM (inactive)
29  C=C1c2nc3ccccc3n2C=C(c2ccccc2)N1c1ccc(OC)cc1    47.5 µM (inactive)
30  O=C1C2C3C=CC(C2C(=O)N1COP(=O)(O)O)C1C2C(=O)N(COP(=O)(O)O)C(=O)C2C31 (configuration not stated)  > 45.7 µM (inactive)
31  CC(=O)O[C@H]1CCC2[C@@H]3CCC4=C(O)c5nocc5C[C@]4(C)C3CC[C@@]21C (some centres not stated)   > 100 µM (inactive)
32  CCN(CC)CCn1ncc2ccc3c(c(=O)c4cccnc4n3CCN(CC)CC)c21     0.519 µM (active)
33  N=C(N)Nc1ccc(CC(N)NCC(=O)O)cc1 (configuration not stated)    > 25 µM (inactive)
34              O=C1OI(C#Cc2ccccc2)c2ccccc21    2.19 µM (inactive)
35       Cc1ncc([N+](=O)[O-])n1CCN=[N+]=[N-]   > 100 µM (inactive)
36  COc1cc(-c2cc(=O)c3cc(C)c(C)c(C(=O)O)c3o2)cc(OC)c1OC   > 100 µM (inactive)
37  C/C(=N\NC(C)(C)C)c1sc(-c2nc(C)c(/C(C)=N/NC(C)(C)C)s2)nc1C   > 100 µM (inactive)
38  N=C(N)N/N=C(\c1ccc(F)cc1)c1ccc(C(F)(F)F)cc1     0.254 µM (active)
39  Cc1cn(C2CC(O)C(COP(=O)(O)OC3CC(n4c[n+]([BH2-]C#N)c5c(=O)[nH]c(N)nc54)OC3CO)O2)c(=O)[nH]c1=O (configuration not stated)   > 100 µM (inactive)
40           N#CC(C#N)=Cc1c[nH]c(=O)[nH]c1=O    54.2 µM (inactive)
41  Cc1ccc(C(=O)N/N=C(\N=N\c2cccc(Cl)c2)c2ccc(N(CCC#N)CCC#N)cc2C)cc1   > 100 µM (inactive)

---

Reported GI50 values are given for each entry in this list.
tested on: MDA-N; assay: NCI tumour cell line growth inhibition, 48 h
Activity calls are given as the source filed them. Rule as the data show it: active = GI50 up to about 1.1 µM and inactive = higher. Residues, ends and D or L forms follow the SMILES beside them. *: point of attachment. Cbz = O=C(OCc1ccccc1)*
metric: GI50

>>> print(df.to_string())
                                    compound  subject_of_test  metric                  val
 0  COC1(OC)c2no[n+]([O-])c2C(OC)(OC)c2c1no[n+]2[O-]            MDA-N    GI50   19.6 µM (inactive)
 1  O=C1c2ccccc2CCC1C(O)(C(F)(F)F)C(F)(F)F (stereo unspecified)            MDA-N    GI50  > 100 µM (inactive)
 2  COc1cccc(-c2ccc3c4c2O[C@H]2c5[nH]c6ccccc6c5C[C@@]5(O)[C@@H](C3)N(CC3CC3)CC[C@]425)c1            MDA-N    GI50   1.85 µM (inactive)
 3  Cc1cc(NS(=O)(=O)c2ccc(NC(=O)c3ccc4nc5ccccc5c(Nc5ccc(S(=O)(=O)N=C(N)N)cc5)c4c3)cc2)no1            MDA-N    GI50   19.5 µM (inactive)
 4                 COc1ccc(C#CC(=O)O)c(OC)c1            MDA-N    GI50  > 100 µM (inactive)
 5           O=c1[nH]nc(Cc2c[nH]c3ccccc23)o1            MDA-N    GI50  > 100 µM (inactive)
 6                O=C1CCCC/C1=C\c1ccc(Br)cc1            MDA-N    GI50   16.3 µM (inactive)
 7  CCOC(=O)c1c(SCCCN2CCCCC2)n(-c2ccccc2)c(=S)n(-c2ccccc2)c1=O            MDA-N    GI50     15 µM (inactive)
 8  CC(NC(=O)C(NC(=O)OCc1ccccc1)C(C)C)C(=O)NCC(=O)O (stereo not drawn) (Cbz-Val-Ala-Gly-OH; configuration not given here)            MDA-N    GI50  > 100 µM (inactive)
 9  Cc1ccc(Nc2nc(N)nc3c2ncn3C2OC(CO)C(O)C2O)cc1 (stereo unspecified)            MDA-N    GI50  > 100 µM (inactive)
10  COC(=O)C1[C@H](C(=O)OC)C1(Br)CBr (stereo partly specified)            MDA-N    GI50  > 100 µM (inactive)
11  CC(=O)/C(=C/n1c(=S)[nH]c2ccccc21)C(=O)Nc1ccccc1C            MDA-N    GI50  > 100 µM (inactive)
12  c1ccc(CSC(SCc2ccccc2)c2ccc3c(c2)OCO3)cc1            MDA-N    GI50   > 10 µM (inactive)
13  O=C1C(Cl)=C(N2CCN(c3ccccn3)CC2)C(=O)c2c(O)ccc(O)c21            MDA-N    GI50   1.21 µM (inactive)
14  O=S(=O)(O)c1cccc2c(/N=N/c3c(O)ccc4ccccc34)cccc12            MDA-N    GI50  > 100 µM (inactive)
15  CCOC(=O)C(C(N)=O)C1=Nc2cc([N+](=O)[O-])ccc2N/C1=C\C(=O)c1ccccc1 (stereo unspecified)            MDA-N    GI50   18.7 µM (inactive)
16    Cc1ccc2c(=O)c3cccc(CC(=O)O)c3[nH]c2c1C            MDA-N    GI50  > 100 µM (inactive)
17  O=C(O)/C=C(/C(=O)O)C12CCN3CC4=CCOC5CC(=O)NC1C5C4CC32 (stereo unspecified)            MDA-N    GI50  > 100 µM (inactive)
18      Oc1ccc(C(c2ccc(O)cc2)c2ccc(O)cc2)cc1            MDA-N    GI50   25.9 µM (inactive)
19        CN(C)Cc1cc(/N=N/c2ccc(Cl)cc2)ccc1O            MDA-N    GI50   19.5 µM (inactive)
20  NC(=O)CCSC(CC(=O)c1ccc(Cl)cc1)c1ccc(Cl)cc1 (stereo unspecified)            MDA-N    GI50   16.7 µM (inactive)
